These entries and their values trace back to ChEMBL document CHEMBL3611970.

MIC by entry:
# System: Staphylococcus aureus
# EXPERIMENT: Antimicrobial activity against methicillin-resistant Staphylococcus aureus 309-8 clinical isolate after 16 hrs by broth microdilution method
# Type: functional
# MEASUREMENT_CONDITIONS: 309-8, 16 h
Expressed in µg/mL, but write only the number.

Previously resolved entries follow.
O=C1Nc2c(Cl)cccc2/C1=N/NC(=S)Nc1cccc(F)c1 = 1.56
Cc1ccc(NC(=S)N/N=C2\C(=O)Nc3c(I)cccc32)cc1 = 1.56

Query block: Quickly give me recorded MIC for `COc1ccc(NC(=S)N/N=C2\C(=O)Nc3c(I)cccc32)cc1`
Result block: 6.25

Query block: Using the record for `Cc1ccccc1NC(=S)N/N=C1\C(=O)Nc2c(Cl)cccc21` , state its measured MIC.
Result block: 1.56

Query block: Let me know recorded MIC for `O=C1Nc2c(I)cccc2/C1=N/NC(=S)Nc1ccccc1F` , thanks.
Result block: 1.56

Query block: Note MIC for the molecule shown: `Cc1cccc(NC(=S)N/N=C2\C(=O)Nc3c(I)cccc32)c1`
Result block: 1.56

Query block: Indicate its recorded MIC; the molecule in question is `COc1cccc(NC(=S)N/N=C2\C(=O)Nc3c(Cl)cccc32)c1`
Result block: 1.56

Query block: Dear colleague, please send me the reported MIC for `O=C1Nc2c(Br)cccc2/C1=N/NC(=S)Nc1cccc(F)c1` when you can.
Result block: 0.78

Query block: Given the molecule `O=C1Nc2c(Cl)cccc2/C1=N/NC(=S)Nc1ccc(Cl)cc1` , write its reported MIC.
Result block: 1.56

Query block: # return recorded MIC for input `O=C1Nc2c(Br)cccc2/C1=N/NC(=S)Nc1ccc(Cl)cc1`
Result block: 0.78

Query block: For the molecule `O=C1Nc2c(I)cccc2/C1=N/NC(=S)Nc1ccc(Cl)cc1` , report MIC.
Result block: 1.56
